- measured target: hERG potassium channel (Homo sapiens, UniProt Q12809)
- Construct: expressed in transfected cells; host or cells: CHO (Chinese Hamster Ovary)
- Sequence (Q12809 whole entry): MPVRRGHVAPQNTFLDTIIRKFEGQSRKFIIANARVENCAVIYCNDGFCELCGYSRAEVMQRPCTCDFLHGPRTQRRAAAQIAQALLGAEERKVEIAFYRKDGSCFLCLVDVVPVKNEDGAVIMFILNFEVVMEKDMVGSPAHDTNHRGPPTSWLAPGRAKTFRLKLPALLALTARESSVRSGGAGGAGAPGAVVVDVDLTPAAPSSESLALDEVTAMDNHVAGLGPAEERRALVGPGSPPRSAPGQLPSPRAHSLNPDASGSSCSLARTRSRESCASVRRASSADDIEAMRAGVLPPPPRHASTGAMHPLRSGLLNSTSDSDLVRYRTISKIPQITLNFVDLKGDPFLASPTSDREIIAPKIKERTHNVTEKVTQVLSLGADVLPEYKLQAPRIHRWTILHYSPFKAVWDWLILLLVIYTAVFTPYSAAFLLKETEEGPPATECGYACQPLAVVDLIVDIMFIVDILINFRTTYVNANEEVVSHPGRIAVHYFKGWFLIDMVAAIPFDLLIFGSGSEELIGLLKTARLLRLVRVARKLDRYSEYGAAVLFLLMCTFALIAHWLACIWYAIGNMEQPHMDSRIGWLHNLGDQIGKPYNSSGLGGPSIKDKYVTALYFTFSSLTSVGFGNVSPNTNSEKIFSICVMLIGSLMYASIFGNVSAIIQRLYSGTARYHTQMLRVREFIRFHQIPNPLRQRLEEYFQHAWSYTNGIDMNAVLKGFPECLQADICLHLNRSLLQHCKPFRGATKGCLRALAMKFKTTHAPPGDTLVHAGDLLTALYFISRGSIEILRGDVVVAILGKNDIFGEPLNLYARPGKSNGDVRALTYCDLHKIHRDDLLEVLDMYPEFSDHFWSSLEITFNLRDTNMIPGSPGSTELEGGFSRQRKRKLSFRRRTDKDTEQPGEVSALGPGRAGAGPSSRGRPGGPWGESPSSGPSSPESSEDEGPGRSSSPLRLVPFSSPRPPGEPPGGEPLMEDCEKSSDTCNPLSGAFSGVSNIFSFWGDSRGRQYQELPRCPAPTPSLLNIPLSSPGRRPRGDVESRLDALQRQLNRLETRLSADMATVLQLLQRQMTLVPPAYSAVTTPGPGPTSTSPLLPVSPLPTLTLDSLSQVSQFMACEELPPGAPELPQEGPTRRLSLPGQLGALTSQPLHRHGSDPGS
- test description: hERG screening assay (PatchXpress patch clamp, CHO cells)
- Type: cell-based
- condition notes: compound at 1 uM; CHO cells expressing hERG

{"smiles structure": "Cn1c(=O)c(C(F)(F)F)nc2cc(-c3ccc(OC(F)(F)F)cc3)ccc21", "measured target": "hERG potassium channel (Homo sapiens, UniProt Q12809)", "result unit": "%", "HERG 1 uM (block of hERG current)": 10.0}
{"smiles structure": "Cn1c(=O)c(C(C)(C)O)nc2ccc(-c3ccc(OC(F)(F)F)cc3)cc21", "measured target": "hERG potassium channel (Homo sapiens, UniProt Q12809)", "result unit": "%", "HERG 1 uM (block of hERG current)": 19.5}
{"smiles structure": "Cn1c(=O)c(C(F)(F)F)nc2ccc(-c3ccc(OC(F)(F)F)cc3)cc21", "measured target": "hERG potassium channel (Homo sapiens, UniProt Q12809)", "result unit": "%", "HERG 1 uM (block of hERG current)": 10.00}
{"smiles structure": "Cn1c(=O)c(C(C)(C)C)nc2ccc(-c3cccc(OC(F)(F)F)c3)cc21", "measured target": "hERG potassium channel (Homo sapiens, UniProt Q12809)", "result unit": "%", "HERG 1 uM (block of hERG current)": 10.0}
{"smiles structure": "CCOC(=O)c1nc2ccc(-c3ccc(OC(F)(F)F)cc3)cc2n(C)c1=O", "measured target": "hERG potassium channel (Homo sapiens, UniProt Q12809)", "result unit": "%", "HERG 1 uM (block of hERG current)": 34.0}
{"smiles structure": "Cc1nc2cc(-c3cccc(OC(F)(F)F)c3)ccc2n(C)c1=O", "measured target": "hERG potassium channel (Homo sapiens, UniProt Q12809)", "result unit": "%", "HERG 1 uM (block of hERG current)": 19.5}
{"smiles structure": "Cn1c(=O)cnc2ccc(-c3ccc(OC(F)(F)F)cc3)cc21", "measured target": "hERG potassium channel (Homo sapiens, UniProt Q12809)", "result unit": "%", "HERG 1 uM (block of hERG current)": 10.00}
{"smiles structure": "CC(C)c1nc2ccc(-c3ccc(OC(F)(F)F)cc3)cc2n(C)c1=O", "measured target": "hERG potassium channel (Homo sapiens, UniProt Q12809)", "result unit": "%", "HERG 1 uM (block of hERG current)": 10.0}
{"smiles structure": "Cc1nc2ccc(-c3ccc(C(F)(F)F)cc3)cc2n(C)c1=O", "measured target": "hERG potassium channel (Homo sapiens, UniProt Q12809)", "result unit": "%", "HERG 1 uM (block of hERG current)": 25.0}
